- target.or.system: SARS-CoV-2 Spike (S) protein, wild type (SARS-CoV-2, UniProt P0DTC2 14-1208)
- assay.method.text: HT-SPR Carterra LSA; mAb coupled to chip, Spike in solution; 1:1 Langmuir fit
pKd: −log10 of the molar value.

- binder: "anti-SARS-CoV-2 antibody 923 (antibody, V domains shown) VH: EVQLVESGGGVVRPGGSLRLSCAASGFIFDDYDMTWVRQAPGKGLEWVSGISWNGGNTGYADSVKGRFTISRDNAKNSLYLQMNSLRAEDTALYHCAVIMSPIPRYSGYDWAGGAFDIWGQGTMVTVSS VL: SSELTQDPAVSVALGQTVRITCQGDSLRSYYASWYQQKPGQVPILVIYDKNNRPSGIPDRFSGSSSGNTASLTITGAQAEDEADYYCNSRDSSGNAVVFGGGTKLTVLG"
  pKd: "≥ 10.79"
- binder: "anti-SARS-CoV-2 antibody 1075 (antibody, V domains shown) VH: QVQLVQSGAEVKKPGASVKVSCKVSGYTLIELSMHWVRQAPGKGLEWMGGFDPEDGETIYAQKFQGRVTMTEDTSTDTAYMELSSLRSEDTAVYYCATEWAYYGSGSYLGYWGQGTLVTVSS VL: EIVMTQSPATLSVSPGERATLSCRASQSVSSNLAWFQQKPGQAPRLLIYGASTRVTVIPARFSGSGSGTEFTLTISSLQSEDFAVYYCQQYNNWPRTFGQGTKVEIKR"
  pKd: 9.14
- binder: "anti-SARS-CoV-2 antibody 1149 (antibody, V domains shown) VH: QVQLVQSGAEVKKPGASVKVSCKASGYTFASYDINWVRQATGQGPEWMGWMIPNIGNTGYAQKFQGRVTMTRNTSISTAYMELSSLTSEDTAVYYCARVSRLFNDFGLRHEAPVDFWGQGTRVTVSS VL: QSVLTQPPSVSGAPGQRVTISCTGSSSNIGAGYDVHWYQQLPGTAPKLLIYGYSSRPSGVPDRFSGSKSGTSASLAITGLQAEDEADYYCQSYDSSLSVLFGGGTKLTVLG"
  pKd: "≥ 10.82"
